# assayed-system: hM1 (human Muscarinic receptor subtype 1) (Homo sapiens, UniProt P11229)
# Sequence (P11229 whole entry): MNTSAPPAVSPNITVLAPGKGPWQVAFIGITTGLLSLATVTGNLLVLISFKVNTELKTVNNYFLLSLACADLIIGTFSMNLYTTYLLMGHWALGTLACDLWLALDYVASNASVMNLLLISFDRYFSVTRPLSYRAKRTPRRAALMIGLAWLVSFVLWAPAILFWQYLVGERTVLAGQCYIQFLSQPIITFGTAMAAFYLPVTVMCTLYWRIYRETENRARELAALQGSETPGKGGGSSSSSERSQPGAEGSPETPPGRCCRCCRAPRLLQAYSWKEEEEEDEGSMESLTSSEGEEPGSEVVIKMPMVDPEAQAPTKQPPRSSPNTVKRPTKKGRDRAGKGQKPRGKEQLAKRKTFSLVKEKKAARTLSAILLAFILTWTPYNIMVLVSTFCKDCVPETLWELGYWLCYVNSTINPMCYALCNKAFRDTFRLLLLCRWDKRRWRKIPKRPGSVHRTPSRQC
# run-description: Human M1 calcium mobilization FLIPR assay
# condition-context: CHO cells expressing hM1, Ca2+ release
Field: EC50. Provide a value for each of the compounds that follow.
The answer is to be given in nM; state only the numeric part.

Challenge: Which EC50 is reported for this compound? CCOC(=O)N1CCC(N2CCC(=C3C(=O)Nc4ccccc43)CC2)C1 (stereo not shown) [Example 12]
Response given: 2690

Challenge: What measured EC50 goes with CCOC(=O)N1CC[C@H](N2CCC(n3c(=O)[nH]c4ccc(C)cc43)CC2)C1 (single isomer, unassigned) [Example 37] ?
Response given: 0.6

Challenge: Could you share which EC50 value was measured for O=C1CCCN1CCCC(=O)N1CC[C@H](N2CCC(n3c(=O)[nH]c4ccccc43)CC2)C1 [Example 22] ?
Response given: 37.9

Challenge: Returns the measured EC50 for the input compound. Input: CCOC(=O)N1CCC(N2CCC(C3C(=O)Nc4ccccc43)CC2)C1 (stereo not shown) [Example 13]
Response given: 113
